Origin of the recorded values: paper PMC12406192

target: VIM-2 (Escherichia coli); experiment: biochemical; settings: time-dependent inhibitors; measured at steady state; listed in Table 2 as Ki with footnote 'Measured as K d'
Kd values, listed per item

Consider the compound shown here: "CCC1(CC)c2ccccc2N(C(=O)[C@H](C)CS)[C@H]1C(N)=O" What is its recorded Kd?
80 nM

Then there is this compound:
Consider the compound shown here: "C[C@H](CS)C(=O)N1c2ccccc2C2(CCCCC2)[C@@H]1C(N)=O" What is its recorded Kd?
160 nM

###

inhibition at 50 µM values, listed per item
target: NDM-1 (Klebsiella pneumoniae); construct: made in house; host or cells: E. coli; assay: Spectrophotometric direct competition assay, imipenem hydrolysis (reporter substrate); type: biochemical; details: read-out: percentage of inhibition NDM-1
Sequence (C7C422 29-270 limits assumed): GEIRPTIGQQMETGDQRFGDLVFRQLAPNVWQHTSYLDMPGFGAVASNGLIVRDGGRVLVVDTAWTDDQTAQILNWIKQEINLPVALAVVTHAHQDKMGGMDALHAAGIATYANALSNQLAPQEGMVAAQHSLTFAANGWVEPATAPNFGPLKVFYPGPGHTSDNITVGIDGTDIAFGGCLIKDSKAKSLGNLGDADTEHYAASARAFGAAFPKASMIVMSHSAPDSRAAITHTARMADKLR
Unit % implied. Number only.

Look over these answered cases.
Consider the compound shown here: "CCC1(CC)c2ccccc2N(C(=O)[C@H](C)CS)[C@@H]1C(N)=O" What is its recorded inhibition at 50 µM?
81

One more compound: "CCC1(CC)c2ccccc2N(C(=O)[C@H](C)CS)[C@@H]1C(=O)NCC(=O)O"
43

One more compound: "C[C@H](CS)C(=O)N1c2ccccc2C(C)(C)[C@@H]1C(=O)NCC(=O)O"
74

One more compound: "CCC1(CC)c2ccccc2N(C(=O)[C@H](C)CS)[C@H]1C(N)=O"
90

One more compound: "C[C@H](CS)C(=O)N1c2ccccc2C2(CCCCC2)[C@H]1C(N)=O"
86

New cases:
Consider the compound shown here: C[C@H](CS)C(=O)N1CCC[C@H]1C(=O)O [L-captopril, reference compound] What is its recorded inhibition at 50 µM?
76

One more compound: "CCC1(CC)c2ccccc2N(C(=O)[C@H](C)CS)[C@H]1C(=O)NCC(=O)O"
67

One more compound: C[C@H](CS)C(=O)N1CCC[C@@H]1C(=O)O [D-captopril, reference compound]
86

###

biological target: VIM-2 (Escherichia coli, UniProt Q5U7L7); construct: made in house; host or cells: E. coli; test: biochemical; conditions: read-out: percentage of inhibition VIM-2
assayReadout: inhibition at 50 µM (%)
Unit % implied. Number only.

Look over these answered cases.
Consider the compound shown here: CCC1(CC)c2ccccc2N(C(=O)[C@H](C)CSC(C)=O)[C@H]1C(N)=O [(S,R′)-14b] What is its recorded inhibition at 50 µM?
15

One more compound: "C[C@H](CS)C(=O)N1c2ccccc2C2(CCCCC2)[C@@H]1C(N)=O"
92

One more compound: "C[C@H](CS)C(=O)N1c2ccccc2C(C)(C)[C@@H]1C(=O)NCC(=O)O"
58

One more compound: "CCC1(CC)c2ccccc2N(C(=O)[C@H](C)CS)[C@H]1C(=O)NCC(=O)O"
69

One more compound: CC(=O)SC[C@@H](C)C(=O)N1c2ccccc2C2(CCCCC2)[C@H]1C(N)=O [(S,S′)-14c]
17

New cases:
Consider the compound shown here: "CCC1(CC)c2ccccc2N(C(=O)[C@H](C)CS)[C@@H]1C(N)=O" What is its recorded inhibition at 50 µM?
96

One more compound: "CCC1(CC)c2ccccc2N(C(=O)[C@H](C)CS)[C@H]1C(N)=O"
98

One more compound: "C[C@H](CS)C(=O)N1c2ccccc2C2(CCCCC2)[C@H]1C(N)=O"
97

One more compound: "C[C@H](CS)C(=O)N1c2ccccc2C(C)(C)[C@H]1C(=O)NCC(=O)O"
38

One more compound: "CCC1(CC)c2ccccc2N(C(=O)[C@H](C)CS)[C@@H]1C(=O)NCC(=O)O"
55

###

pKi values, listed per item
target: VIM-2 (Escherichia coli, UniProt Q5U7L7); test: biochemical; conditions: competitive model, imipenem reporter substrate; read-out: K i VIM-2
FYI, pKi means -log10 of a concentration in mol per litre.

What reported pKi corresponds to "CCC1(CC)c2ccccc2N(C(=O)[C@H](C)CS)[C@@H]1C(N)=O" on VIM-2 (Escherichia coli, UniProt Q5U7L7)?
6.80

New cases:
What reported pKi corresponds to "C[C@H](CS)C(=O)N1c2ccccc2C2(CCCCC2)[C@H]1C(N)=O" on VIM-2 (Escherichia coli, UniProt Q5U7L7)?
7.00

###

imipenem MIC, E. coli SI-G001 (bla NDM‑4 +) values, listed per item
system: E. coli SI-G001 (bla NDM‑4 +); format: cell-based; settings: compound at 32 μg/mL; median of three experiments
Unit µg/mL implied. Number only.

Look over these answered cases.
Consider the molecule shown here: CCC1(CC)c2ccccc2N(C(=O)[C@H](C)CSC(C)=O)[C@H]1C(N)=O [(S,R′)-14b] What is its recorded imipenem MIC, E. coli SI-G001 (bla NDM‑4 +)?
64

One more molecule: "C[C@H](CS)C(=O)N1c2ccccc2C(C)(C)[C@@H]1C(=O)NCC(=O)O"
64

One more molecule: "CCC1(CC)c2ccccc2N(C(=O)[C@H](C)CS)[C@H]1C(=O)NCC(=O)O"
64

New cases:
Consider the molecule shown here: "C[C@H](CS)C(=O)N1c2ccccc2C2(CCCCC2)[C@@H]1C(N)=O" What is its recorded imipenem MIC, E. coli SI-G001 (bla NDM‑4 +)?
64

One more molecule: "C[C@H](CS)C(=O)N1c2ccccc2C2(CCCCC2)[C@H]1C(N)=O"
64

###

target: IMP-1 (Serratia marcescens); construct: made in house; host or cells: E. coli; assay: biochemical; settings: read-out: percentage of inhibition IMP-1
Sequence (P52699 19-246, looked up, species assumed): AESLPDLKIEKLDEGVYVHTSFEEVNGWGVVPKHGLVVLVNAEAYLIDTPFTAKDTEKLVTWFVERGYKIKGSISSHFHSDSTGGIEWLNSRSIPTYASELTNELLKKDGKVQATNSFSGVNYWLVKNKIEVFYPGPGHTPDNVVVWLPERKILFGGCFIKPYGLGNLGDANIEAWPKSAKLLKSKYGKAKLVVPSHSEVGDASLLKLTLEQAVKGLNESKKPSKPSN
assayReadout: inhibition at 50 µM

Look over these answered cases.
Consider the compound shown here: CC(=O)SC[C@@H](C)C(=O)N1c2ccccc2C2(CCCCC2)[C@H]1C(N)=O [(S,S′)-14c] What is its recorded inhibition at 50 µM?
≤ 10%

One more compound: C[C@H](CS)C(=O)N1c2ccccc2C(C)(C)[C@H]1C(=O)NCC(=O)O [7a]
≤ 10%

Then there is this compound:
Consider the compound shown here: CCC1(CC)c2ccccc2N(C(=O)[C@H](C)CSC(C)=O)[C@H]1C(N)=O [(S,R′)-14b] What is its recorded inhibition at 50 µM?
≤ 10%

###

imipenem MIC, E. coli SI-G001 (bla NDM‑4 +) values, listed per item
system: E. coli SI-G001 (bla NDM‑4 +); type: cell-based; settings: compound at 32 μg/mL; median of three experiments
Unit µg/mL implied. Number only.

Look over these answered cases.
Consider the compound shown here: CC(=O)SC[C@@H](C)C(=O)N1c2ccccc2C2(CCCCC2)[C@H]1C(N)=O [(S,S′)-14c] What is its recorded imipenem MIC, E. coli SI-G001 (bla NDM‑4 +)?
32

One more compound: CCC1(CC)c2ccccc2N(C(=O)[C@H](C)CS)[C@@H]1C(=O)NCC(=O)O [7c]
64

One more compound: C[C@H](CS)C(=O)N1c2ccccc2C(C)(C)[C@H]1C(=O)NCC(=O)O [7a]
64

New cases:
Consider the compound shown here: CCC1(CC)c2ccccc2N(C(=O)[C@H](C)CS)[C@H]1C(N)=O [6d] What is its recorded imipenem MIC, E. coli SI-G001 (bla NDM‑4 +)?
32

One more compound: CCC1(CC)c2ccccc2N(C(=O)[C@H](C)CS)[C@@H]1C(N)=O [6c]
64
